# Bliss excess listing for each entry below
- System: VMRC-LCD (Lung Adenocarcinoma);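 note: after 72 h of two-drug dosing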
- measurement-protocol: Bliss excess, mean over the matrix (fraction); higher = more synergy
Give the figure only, with no unit attached.

Here's what some known entries look like.
# molecule, target, Bliss excess
measured = [
    ("Cc1cc2ncnn2cc1Nc1ncc2c(n1)n(C1CCOCC1)c(=O)n2C [AZD7648] + O=C(c1cc(Cc2n[nH]c(=O)c3ccccc23)ccc1F)N1CCN(C(=O)C2CC2)CC1 [Olaparib] (first compound max 10 µM, 7x7, partner max 10 µM)", "VMRC-LCD (Lung Adenocarcinoma)", -0.0443),
    ("Cc1c2c(nn1C)CSCc1cc(n(C)n1)CSc1cc(c3ccccc3c1)OCCCc1c(C(=O)O)n(C)c3c-2c(Cl)ccc13 [AZD5991] + C[C@@H](Nc1cc(F)cc(F)c1)c1cc(C(=O)N(C)C)cc2c(=O)cc(N3CCOCC3)oc12 [AZD8186] (first compound max 1 µM, 7x7, partner max 3 µM)", "VMRC-LCD (Lung Adenocarcinoma)", -0.024),
    ("C[C@@H](c1ccc2nccn2c1)n1nnc2ncc(-c3cnn(C)c3)nc21 [Savolitinib] + Cc1c2c(nn1C)CSCc1cc(n(C)n1)CSc1cc(c3ccccc3c1)OCCCc1c(C(=O)O)n(C)c3c-2c(Cl)ccc13 [AZD5991] (first compound max 1 µM, 7x7, partner max 1 µM)", "VMRC-LCD (Lung Adenocarcinoma)", -0.0198),
    ("Cc1nc(-c2cn3c(n2)-c2ccc(-c4cnn(C(C)(C)C(N)=O)c4)cc2OCC3)n(C(C)C)n1 [Taselisib] + O=C(Nc1ccc2[nH]nc(-c3ccncc3)c2c1)[C@@H]1CCN(CC(=O)N2CCN(c3ccc(-c4ncccn4)cc3)CC2)C1 [SCH772984] (first compound max 10 µM, 7x7, partner max 5 µM)", "VMRC-LCD (Lung Adenocarcinoma)", -0.0342),
    ("N#Cc1cnc(Nc2cc(NC[C@H]3CNCCO3)c(C(F)(F)F)cn2)cn1 [SRA737] + CCc1c2c(nc3ccc(O)cc13)-c1cc3c(c(=O)n1C2)COC(=O)[C@]3(O)CC [SN-38] (first compound max 10 µM, 7x7, partner max 0.3 µM)", "VMRC-LCD (Lung Adenocarcinoma)", 0.102),
    ("CC1(C)CCC(CN2CCN(c3ccc(C(=O)NS(=O)(=O)c4ccc(NCC5CCOCC5)c([N+](=O)[O-])c4)c(Oc4cnc5[nH]ccc5c4)c3)CC2)=C(c2ccc(Cl)cc2)C1 [Venetoclax] + C[C@@H](Nc1cc(F)cc(F)c1)c1cc(C(=O)N(C)C)cc2c(=O)cc(N3CCOCC3)oc12 [AZD8186] (first compound max 1 µM, 7x7, partner max 3 µM)", "VMRC-LCD (Lung Adenocarcinoma)", -0.0457),
    ("Cc1cc2ncnn2cc1Nc1ncc2c(n1)n(C1CCOCC1)c(=O)n2C [AZD7648] + CCN(CCO)CCCOc1ccc2c(Nc3cc(CC(=O)Nc4cccc(F)c4)[nH]n3)ncnc2c1 [AZD2811] (first compound max 10 µM, 7x7, partner max 1 µM)", "VMRC-LCD (Lung Adenocarcinoma)", -0.0267),
    ("Cc1cc2ncnn2cc1Nc1ncc2c(n1)n(C1CCOCC1)c(=O)n2C [AZD7648] + C=CCn1c(=O)c2cnc(Nc3ccc(N4CCN(C)CC4)cc3)nc2n1-c1cccc(C(C)(C)O)n1 [AZD1775] (first compound max 10 µM, partner max 1 µM)", "VMRC-LCD (Lung Adenocarcinoma)", -0.0057),
]

Q. For the molecule COc1cccc(OCCCN)c1-c1cc(Nc2cnc(C#N)cn2)n[nH]1 [Prexasertib] + C[C@@H]1COCCN1C2=NC(=NC(=C2)C3(CC3)[S@](=N)(=O)C)C4=C5C=CNC5=NC=C4 [AZD6738] (first compound max 1 µM, 7x7, partner max 10 µM) , what Bliss excess is on record?
A. 0.0201

Q. For the molecule Cc1c2c(nn1C)CSCc1cc(n(C)n1)CSc1cc(c3ccccc3c1)OCCCc1c(C(=O)O)n(C)c3c-2c(Cl)ccc13 [AZD5991] + CS(=O)(=O)CCNCc1ccc(-c2ccc3ncnc(Nc4ccc(OCc5cccc(F)c5)c(Cl)c4)c3c2)o1 [Lapatinib] (first compound max 1 µM, 7x7, partner max 10 µM) , what Bliss excess is on record?
A. 0.0626
